Entries annotated with measured Antimicrobial activity (MIC)
# Test system: S. epidermidis, 56500
# test_name: Antimicrobial activity (MIC), standard method of Nippon Kagakuryoho Gakkai
# Assay type: cell-based
# experimental_conditions: S. epidermidis
Your answer is read as µg/mL, so omit the unit and give the number.

Below, each entry is followed by its recorded Antimicrobial activity (MIC) result.
- C[C@H]1C[C@H](N)CN1c1nc2c(cc1F)c(=O)c(C(=O)O)cn2[C@@H]1C[C@@H]1F (relative stereo) [Compound 31b]: 0.20
- NC1CN(c2c(F)cc3c(=O)c(C(=O)O)cn(C4CC4F)c3c2Cl)CC12CC2 (single isomer, unassigned) [Compound 26ab]: 0.10

Proceeding to the next molecule to report its Antimicrobial activity (MIC).
The molecule N[C@H]1CCN(c2cc3c(cc2F)c(=O)c(C(=O)O)cn3[C@@H]2C[C@@H]2F)C1 (relative stereo) [Compound 9a] , tested on S. epidermidis, 56500, showed Antimicrobial activity (MIC) of 0.39
